assay: M. tuberculosis H37Rv growth inhibitors, H37Rv strain (AID 1626); details: hits give high values, concentration not given here;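 further: bacteria incubated seven days before Alamar blue readout; 0% = bacteria only wells and 100% = bacteria with antibiotic wells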
Among all 220,000 compounds or so, about 2,000 (0.91%) were called active. Roughly 2% stayed inconclusive and do not appear here. A selection follows. Results with a measured potency or affinity are listed apart.
Kindly supply the reported inhibition values for the records listed here.
Reply with just the number (in %).

GET /values?readout=inhibition&item= `O=C(O)C1CCN(c2nc(-c3ccccc3)nc3c2oc2ccccc23)CC1`
2.63

Likewise for COCCN(C(=O)c1ccco1)C(C(=O)NC1CCCC1)c1cccs1 (stereo unspecified) ?
0.07

Likewise for `COc1ccccc1/C=C/C(=O)NCC(=O)N/N=C/c1ccccc1[N+](=O)[O-]` ?
-1.7

Likewise for `CCOC(=O)C1CCN(c2nc(-c3ccccc3)nc3c2oc2ccccc23)CC1` ?
25.5

Likewise for `ClC(=C\c1ccccc1)/C=N/N1CCN(c2ccccn2)CC1` ?
-1.5

Likewise for O=C(c1ccc2c(c1)OCCO2)N1CCCC(CNS(=O)(=O)c2cccs2)C1 (stereo unspecified) ?
4.35

Likewise for `COc1ccc(NC(=O)c2noc(C(C)C)c2[N+](=O)[O-])cc1` ?
-2.72

Likewise for `OCCN(CCO)c1nc(-c2ccccc2)nc2c1oc1ccccc12` ?
0.94

Likewise for `COc1ccc(C[C@@H]2CN3C(=NC[C@@H]3C)N2C[C@H](C)NC(=O)c2ccc(C)c(Br)c2)cc1` ?
8.27

Likewise for `N#Cc1cccc(NC(=O)CC2CCCCC2)c1` ?
1.61

Likewise for `Clc1ccc(-c2ccn[nH]2)cc1` ?
58.5
